FYI, the data here is from patent US20250059171A1.

Consider compounds characterized by their IC50 with SARS-CoV 3CLpro (Severe acute respiratory syndrome coronavirus, UniProt P0C6X7).
Metric name: IC50 (nM)

CC[C@H](C)[C@H](NC(=O)C(C)C)C(=O)N1C[C@H]2[C@@H]([C@H]1C(=O)NN(C[C@@H]1CCNC1=O)C(=O)[C@H](F)Cl)C2(C)C ... 12
CC[C@H](C)[C@H](NC(=O)C1CC(F)(F)C1)C(=O)N1C[C@H]2[C@@H]([C@H]1C(=O)NN(C[C@@H]1CCNC1=O)C(=O)[C@H](F)Cl)C2(C)C ... 15
CCC(CC)[C@H](NC(=O)C(F)F)C(=O)N1C[C@H]2[C@@H]([C@H]1C(=O)NN(C[C@@H]1CCNC1=O)C(=O)[C@H](F)Cl)C2(C)C ... 14
CC(F)(F)C(=O)N[C@H](C(=O)N1C[C@H]2[C@@H]([C@H]1C(=O)NN(C[C@@H]1CCNC1=O)C(=O)[C@@H](F)Cl)C2(C)C)C(C)(C)C ... 12
CC[C@H](C)[C@H](NC(=O)C(F)(F)C(F)(F)F)C(=O)N1C[C@@H]2CCC[C@@H]2[C@H]1C(=O)NN(C[C@@H]1CCNC1=O)C(=O)[C@H](F)Cl ... 8
CCC(CC)[C@H](NC(=O)C1CC1)C(=O)N1C[C@H]2[C@@H]([C@H]1C(=O)NN(C[C@@H]1CCNC1=O)C(=O)[C@H](F)Cl)C2(C)C ... 16
CC1(C)[C@@H]2[C@@H](C(=O)NN(C[C@@H]3CCNC3=O)C(=O)[C@H](F)Cl)N(C(=O)[C@@H](NC(=O)C(F)(F)F)c3ccccc3)C[C@@H]21 ... 17

---

# Tested target: SARS-CoV 3CLpro (Severe acute respiratory syndrome coronavirus, UniProt P0C6X7)
pIC50: −log10 of the molar value.
Metric name: pIC50

CC[C@@H](C)[C@H](NC(=O)C1CC(F)(F)C1)C(=O)N1C[C@@H]2CCC[C@@H]2[C@H]1C(=O)NN(C[C@@H]1CCNC1=O)C(=O)[C@H](F)Cl ... 7.74
CC(C)(C)[C@H](NC(=O)C1CC(F)(F)C1)C(=O)N1C[C@@H]2CCC[C@@H]2[C@H]1C(=O)NN(C[C@@H]1CCNC1=O)C(=O)[C@H](F)Cl ... 7.96
CC1(C)[C@@H]2[C@@H](C(=O)NN(C[C@@H]3CCNC3=O)C(=O)[C@H](F)Cl)N(C(=O)[C@@H](NC(=O)C3(F)CC3)C3CCC3)C[C@@H]21 ... 7.55
CC[C@H](C)[C@H](NC(=O)C1(F)CC1)C(=O)N1C[C@H]2[C@@H]([C@H]1C(=O)NN(C[C@@H]1CCCNC1=O)C(=O)[C@H](F)Cl)C2(C)C [Example 166a] ... 7.74

---

# Tested target: MERS-CoV 3CLpro (Middle East respiratory syndrome-related coronavirus, UniProt K9N7C7)
# Sequence (K9N7C7 3248-3553): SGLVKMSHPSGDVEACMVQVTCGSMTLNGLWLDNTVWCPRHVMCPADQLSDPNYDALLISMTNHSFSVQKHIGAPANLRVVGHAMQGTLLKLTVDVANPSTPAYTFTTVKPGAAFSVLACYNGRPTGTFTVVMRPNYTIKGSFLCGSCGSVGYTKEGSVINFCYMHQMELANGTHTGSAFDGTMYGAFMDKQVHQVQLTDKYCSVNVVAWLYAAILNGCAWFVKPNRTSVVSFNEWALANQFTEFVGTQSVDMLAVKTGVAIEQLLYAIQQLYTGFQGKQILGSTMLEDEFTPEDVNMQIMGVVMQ
Labelling field: enter criterion met if recorded IC50 is less than 90 nM. Enter criterion not met if it equals or exceeds that cut-off.

CC(C)(C)C[C@H](NC(=O)C1(F)CC1)C(=O)N1C[C@H]2[C@@H]([C@H]1C(=O)NN(C[C@@H]1CCNC1=O)C(=O)[C@H](F)Cl)C2(C)C ... criterion not met
CCC(C)(C)[C@H](NC(=O)C(C)F)C(=O)N1C[C@H]2[C@@H]([C@H]1C(=O)NN(C[C@@H]1CCNC1=O)C(=O)[C@@H](F)Cl)C2(C)C (mixture of isomers) ... criterion not met
CC(C)(C)[C@H](NC(=O)C(F)F)C(=O)N1C[C@H]2[C@@H]([C@H]1C(=O)NN(C[C@@H]1CCNC1=O)C(=O)[C@H](F)Cl)C2(C)C ... criterion not met
CC[C@@H](C)[C@H](NC(=O)C1CC1(F)F)C(=O)N1C[C@H]2[C@@H]([C@H]1C(=O)NN(C[C@@H]1CCNC1=O)C(=O)[C@@H](F)Cl)C2(C)C (mixture of isomers) ... criterion not met
CC[C@@H](C)[C@H](NC(=O)[C@H](C)F)C(=O)N1C[C@H]2[C@@H]([C@H]1C(=O)NN(C[C@@H]1CCNC1=O)C(=O)[C@@H](F)Cl)C2(C)C ... criterion not met
CC[C@H](C)[C@H](NC(=O)C(Cl)Cl)C(=O)N1C[C@H]2[C@@H]([C@H]1C(=O)NN(C[C@@H]1CCNC1=O)C(=O)[C@H](F)Cl)C2(C)C ... criterion not met
CCC(C)(C)[C@H](NC(=O)C(F)F)C(=O)N1C[C@@H]2CCC[C@@H]2[C@H]1C(=O)NN(C[C@@H]1CCNC1=O)C(=O)[C@H](F)Cl ... criterion met
CCC(C)(C)[C@H](NC(=O)C1CC1)C(=O)N1C[C@H]2[C@@H]([C@H]1C(=O)NN(C[C@@H]1CCCNC1=O)C(=O)[C@H](F)Cl)C2(C)C [Example 169a] ... criterion not met
CCC(C)(C)[C@H](NC(=O)C(F)(F)F)C(=O)N1C[C@H]2[C@@H]([C@H]1C(=O)NN(C[C@@H]1CCNC1=O)C(=O)[C@H](F)Cl)C2(C)C ... criterion met
CC(C)(C)[C@H](NC(=O)[C@@H]1CC1(F)F)C(=O)N1C[C@@H]2CCC[C@@H]2[C@H]1C(=O)NN(C[C@@H]1CCNC1=O)C(=O)[C@H](F)Cl ... criterion met
CC[C@H](C)[C@H](NC(=O)C1(F)CC1)C(=O)N1C[C@H]2[C@@H]([C@H]1C(=O)NN(C[C@@H]1CCNC1=O)C(=O)[C@H](F)Cl)C2(C)C ... criterion met
CC[C@@H](C)[C@H](NC(=O)[C@@H](C)F)C(=O)N1C[C@H]2[C@@H]([C@H]1C(=O)NN(C[C@@H]1CCNC1=O)C(=O)[C@H](F)Cl)C2(C)C ... criterion not met
CCC(C)(C)[C@H](NC(=O)[C@H](C)F)C(=O)N1C[C@H]2[C@@H]([C@H]1C(=O)NN(C[C@@H]1CCNC1=O)C(=O)[C@H](F)Cl)C2(C)C ... criterion not met
